Listed next: entries and their corresponding foliar effect.
System: ERIBO
Assay: Greenhouse test, post-emergence (PO) application, foliar effect
Format: in vivo, Erigeron bonariensis
Settings: ERIBO sensitive, (A) 50, (B) 20, mixture 50 + 20 g of AS/ha, 3 weeks after application
Note: unit % is implicit; provide only the numeric part.

> print(dat)
                                   compound    tgt  value.units  result.number
1  CCOC(=O)c1ccccc1S(=O)(=O)NC(=O)Nc1nc(Cl)cc(OC)n1 [(B4), chlorimuron-ethyl]  ERIBO            %             80
2  COc1cc(OC)nc(NC(=O)NS(=O)(=O)c2cc(NC=O)ccc2C(=O)N(C)C)n1 [(B2), foramsulfuron]  ERIBO            %             50
3  COC(=O)c1csc(C)c1S(=O)(=O)NC(=O)n1nc(OC)n(C)c1=O [(B5), thiencarbazone-methyl]  ERIBO            %             70
4  COc1cc(OC)nc(NC(=O)NS(=O)(=O)c2ncccc2C(F)(F)F)n1 [(B1), flazasulfuron]  ERIBO            %             90
5  CCS(=O)(=O)c1cccnc1S(=O)(=O)NC(=O)Nc1nc(OC)cc(OC)n1 [(B3), rimsulfuron]  ERIBO            %             90

Lab note: need foliar effect for Cc1ccc2c(c1)[C@H](Nc1nc(N)nc(C(C)F)n1)[C@@H](C)C2 (stereo partly drawn) [(A), indaziflam] on ERIBO, anyone have it?
50

====

Listed next: entries and their corresponding foliar effect.
Test system: CHEAL
Assay: Greenhouse test, post-emergence (PO) application, foliar effect
Assay type: in vivo, Chenopodium album
Details: CHEAL resistant - group B (TSR), C1 (NA) and G (NTR), (A) 50, (B) 20, mixture 50 + 20 g of AS/ha, 3 weeks after application
Note: unit % is implicit; provide only the numeric part.

Example cases with answers are listed next.
> print(dat)
                                   compound        measure  result.number
1  CCS(=O)(=O)c1cccnc1S(=O)(=O)NC(=O)Nc1nc(OC)cc(OC)n1  foliar effect             70
2  CCOC(=O)c1ccccc1S(=O)(=O)NC(=O)Nc1nc(Cl)cc(OC)n1  foliar effect             50
3  COC(=O)c1csc(C)c1S(=O)(=O)NC(=O)n1nc(OC)n(C)c1=O  foliar effect             70
4  Cc1ccc2c(c1)[C@H](Nc1nc(N)nc(C(C)F)n1)[C@@H](C)C2 (stereo partly drawn)  foliar effect             70
5  COc1cc(OC)nc(NC(=O)NS(=O)(=O)c2ncccc2C(F)(F)F)n1  foliar effect             70

Next up:
Given COc1cc(OC)nc(NC(=O)NS(=O)(=O)c2cc(NC=O)ccc2C(=O)N(C)C)n1 , state its recorded foliar effect.
70

====

Tested on: APESV
Assay: Greenhouse test, pre-emergence (PE) soil application
Type: in vivo, Apera spica-venti
Parameters: key: % effect: 0 = no effect, 100 = full effect vs untreated
Details: group (B) compound alone, 20 g of AS/ha
measure: effect on APESV sensitive
Keep the answer to the number alone.

> print(dat)
                                        mol                    measure  result.number
1  COc1cc(OC)nc(NC(=O)NS(=O)(=O)c2cc(NC=O)ccc2C(=O)N(C)C)n1  effect on APESV sensitive             95
2  CCOC(=O)c1ccccc1S(=O)(=O)NC(=O)Nc1nc(Cl)cc(OC)n1  effect on APESV sensitive             90
3  COc1cc(OC)nc(NC(=O)NS(=O)(=O)c2ncccc2C(F)(F)F)n1  effect on APESV sensitive             85

Given CCS(=O)(=O)c1cccnc1S(=O)(=O)NC(=O)Nc1nc(OC)cc(OC)n1 , state its recorded effect on APESV sensitive.
93

Given COC(=O)c1csc(C)c1S(=O)(=O)NC(=O)n1nc(OC)n(C)c1=O , state its recorded effect on APESV sensitive.
95

This collection of values is drawn from patent US9439430B2.
